Taken from the supplement of paper PMC8728848.

- tested-system: Gal3S4S(b1-4)GlcNAc
- method-summary: glycan array binding signal (z-score within array); higher = stronger binding
- condition-description: glycan notation: IUPAC condensed, linker removed
About 410 targets per protein were measured; listed, in parts, are those with the strongest signals and a random draw of the rest.
property-measured: glycan array binding signal (z-score)
// print number alone

Asked: Please report the measured glycan array binding signal (z-score) for PNGase F (Flavobacterium meningosepticum) (protein) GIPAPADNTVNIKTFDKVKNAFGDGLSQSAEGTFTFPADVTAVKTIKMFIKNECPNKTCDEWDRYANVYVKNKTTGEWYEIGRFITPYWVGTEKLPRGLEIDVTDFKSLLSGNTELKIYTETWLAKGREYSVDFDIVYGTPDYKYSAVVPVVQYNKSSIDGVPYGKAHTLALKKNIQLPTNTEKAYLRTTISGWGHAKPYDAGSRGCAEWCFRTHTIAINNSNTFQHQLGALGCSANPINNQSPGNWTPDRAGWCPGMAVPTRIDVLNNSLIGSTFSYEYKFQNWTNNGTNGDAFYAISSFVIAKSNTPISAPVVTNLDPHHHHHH
Given back: -0.092
